Values compiled from patent US20120178815A1.

Measured Ki values are reported for all entries that follow.
# assay.target: human serotonin transporter (hSERT) (Homo sapiens, UniProt P31645)
# Construct: expressed in transfected cells; host or cells: CHO cells (membranes)
# Sequence (P31645 whole entry): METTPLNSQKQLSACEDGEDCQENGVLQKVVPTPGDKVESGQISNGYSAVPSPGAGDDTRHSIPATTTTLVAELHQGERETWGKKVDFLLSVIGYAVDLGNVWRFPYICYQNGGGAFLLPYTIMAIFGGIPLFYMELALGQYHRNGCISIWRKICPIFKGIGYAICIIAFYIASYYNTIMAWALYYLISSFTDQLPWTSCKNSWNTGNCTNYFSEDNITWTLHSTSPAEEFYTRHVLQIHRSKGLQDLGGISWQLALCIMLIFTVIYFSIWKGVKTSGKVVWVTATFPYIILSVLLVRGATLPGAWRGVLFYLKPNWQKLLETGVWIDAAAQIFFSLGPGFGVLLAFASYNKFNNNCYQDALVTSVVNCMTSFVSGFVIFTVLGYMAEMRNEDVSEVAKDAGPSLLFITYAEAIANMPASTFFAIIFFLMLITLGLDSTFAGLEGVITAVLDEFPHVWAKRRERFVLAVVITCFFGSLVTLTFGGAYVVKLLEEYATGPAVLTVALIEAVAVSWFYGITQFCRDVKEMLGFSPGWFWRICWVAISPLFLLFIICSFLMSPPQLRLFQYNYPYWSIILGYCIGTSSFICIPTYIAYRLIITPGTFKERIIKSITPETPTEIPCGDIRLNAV
# measurement.description: 5HT transporter competitive binding assay, [3H]imipramine
# condition.description: Example 4; read-out: Monoamine Transporter Affinity, 5HT, Ki
# number only, unit nM dropped from output

compound	Ki (nM)
CNCC/C=C1\c2ccccc2C[C@H](O)c2ccccc21 (stereo in doubt) [(+)-E-10-OH-NT]	400

With those in mind, consider the next compound.
input: Requested field: Ki. Item: CNCC/C=C1\c2ccccc2C[C@@H](O)c2ccccc21 (stereo in doubt) [(−)-E-10-OH-NT]
output: 660
